- System: Enterococcus faecium MDR Van A ATCC 51559
- Assay explanation: MIC assay, E. faecium MDR Van A ATCC 51559
- Assay type: cell-based
- Condition set: 24 h incubation, visual reading
Readout type: Minimum Inhibitory Concentration (MIC) E. faecium ATCC51559

Some solved cases for reference:
1. CNC(=O)C(CCCCNC(=O)C1NC(=O)C2NC(=O)C(NC(=O)C3NC(=O)C(CC(N)=O)NC(=O)C(NC(=O)C(CC(C)C)NC)C(O)c4ccc(c(Cl)c4)Oc4cc3cc(c4OC3OC(CO)C(O)C(O)C3OC3CC(C)(N)C(O)C(C)O3)Oc3ccc(cc3Cl)C2O)c2ccc(O)c(c2)-c2c(O)cc(O)cc21)NC(=O)C(CCCCN)NC(=O)C(CCCCNC(=O)c1ccc(OCc2ccccc2)cc1)NC(=O)c1ccc(OCc2ccccc2)cc1 (stereo not shown) [MCC_000519]	xx (xx = 1-4)
2. CCCCCCCCCC(=O)N[C@@H](CCCCN1CCCCC1)C(=O)N[C@@H](CCCCNC(=O)[C@H]1NC(=O)[C@H]2NC(=O)[C@H](NC(=O)[C@@H]3NC(=O)[C@H](CC(N)=O)NC(=O)[C@H](NC(=O)[C@@H](CC(C)C)NC)[C@H](O)c4ccc(c(Cl)c4)Oc4cc3cc(c4O[C@@H]3O[C@H](CO)[C@@H](O)[C@H](O)[C@H]3O[C@H]3C[C@](C)(N)[C@H](O)[C@H](C)O3)Oc3ccc(cc3Cl)[C@H]2O)c2ccc(O)c(c2)-c2c(O)cc(O)cc21)C(=O)O [MCC_007328]	x (x = >4)
3. CCCCCCCCCCC(=O)N[C@@H](CCCCN)C(=O)NCCNC(=O)[C@H]1NC(=O)[C@H]2NC(=O)[C@H](NC(=O)[C@@H]3NC(=O)[C@H](CC(N)=O)NC(=O)[C@H](NC(=O)[C@@H](CC(C)C)NC)[C@H](O)c4ccc(c(Cl)c4)Oc4cc3cc(c4O[C@@H]3O[C@H](CO)[C@@H](O)[C@H](O)[C@H]3O[C@H]3C[C@](C)(N)[C@H](O)[C@H](C)O3)Oc3ccc(cc3Cl)[C@H]2O)c2ccc(O)c(c2)-c2c(O)cc(O)cc21 [MCC_005163]	x (x = >4)
4. CCCCCCCCC(=O)NC(CCCCN(C)C)C(=O)NCCCNC(=O)C1NC(=O)C2NC(=O)C(NC(=O)C3NC(=O)C(CC(N)=O)NC(=O)C(NC(=O)C(CC(C)C)NC)C(O)c4ccc(c(Cl)c4)Oc4cc3cc(c4OC3OC(CO)C(O)C(O)C3OC3CC(C)(N)C(O)C(C)O3)Oc3ccc(cc3Cl)C2O)c2ccc(O)c(c2)-c2c(O)cc(O)cc21 (stereo not shown) [MCC_007338]	x (x = >4)
5. CNC(CC(C)C)C(=O)NC1C(=O)NC(CC(N)=O)C(=O)NC2C(=O)NC3C(=O)NC(C(=O)NC(C(=O)NCCCCC(NC(=O)C(CCCCN)NC(=O)C(CCCCN)NC(=O)CNC(=O)c4ccc(Oc5ccccc5)cc4)C(=O)O)c4cc(O)cc(O)c4-c4cc3ccc4O)C(O)c3ccc(c(Cl)c3)Oc3cc2cc(c3OC2OC(CO)C(O)C(O)C2OC2CC(C)(N)C(O)C(C)O2)Oc2ccc(cc2Cl)C1O (stereo not shown) [MCC_000381]	x (x = >4)
6. CCCCCCCCCCCCCC(=O)N[C@@H](CCCCN)C(=O)N[C@@H](CCCCN)C(=O)N[C@@H](Cc1cn(CCCNC(=O)[C@H]2NC(=O)[C@H]3NC(=O)[C@H](NC(=O)[C@@H]4NC(=O)[C@H](CC(N)=O)NC(=O)[C@H](NC(=O)[C@@H](CC(C)C)NC)[C@H](O)c5ccc(c(Cl)c5)Oc5cc4cc(c5O[C@@H]4O[C@H](CO)[C@@H](O)[C@H](O)[C@H]4O[C@H]4C[C@](C)(N)[C@H](O)[C@H](C)O4)Oc4ccc(cc4Cl)[C@H]3O)c3ccc(O)c(c3)-c3c(O)cc(O)cc32)nn1)C(N)=O [MCC_000979]	xxx (xxx = 0.1-<1)

Field Minimum Inhibitory Concentration (MIC) E. faecium ATCC51559 (system: Enterococcus faecium MDR Van A ATCC 51559) for entry CCCCCCC(CCCC)C(=O)NCCCCC(NC(=O)C(CCCC)CCCCCC)C(=O)NC(CCCCN)C(=O)NC(CCCCNC(=O)C1NC(=O)C2NC(=O)C(NC(=O)C3NC(=O)C(CC(N)=O)NC(=O)C(NC(=O)C(CC(C)C)NC)C(O)c4ccc(c(Cl)c4)Oc4cc3cc(c4OC3OC(CO)C(O)C(O)C3OC3CC(C)(N)C(O)C(C)O3)Oc3ccc(cc3Cl)C2O)c2ccc(O)c(c2)-c2c(O)cc(O)cc21)C(=O)NC (stereo not shown) [MCC_000497] = xxx (xxx = 0.1-<1)

The observed Minimum Inhibitory Concentration (MIC) E. faecium ATCC51559 for CCCCCOc1ccc(C(=O)NC(CCCCN)C(=O)NC(CCCCN)C(=O)NC(CCCCNC(=O)C2NC(=O)C3NC(=O)C(NC(=O)C4NC(=O)C(CC(N)=O)NC(=O)C(NC(=O)C(CC(C)C)NC)C(O)c5ccc(c(Cl)c5)Oc5cc4cc(c5OC4OC(CO)C(O)C(O)C4OC4CC(C)(N)C(O)C(C)O4)Oc4ccc(cc4Cl)C3O)c3ccc(O)c(c3)-c3c(O)cc(O)cc32)C(=O)NC)cc1 (stereo not shown) [MCC_000501] when tested with Enterococcus faecium MDR Van A ATCC 51559 stands at x (x = >4)

GET /values?item= CCCCCCCCCCCN1CCC(C(=O)N[C@@H](CCCCN)C(=O)N[C@@H](CCCCN)C(=O)N[C@@H](CCCCNC(=O)[C@H]2NC(=O)[C@H]3NC(=O)[C@H](NC(=O)[C@@H]4NC(=O)[C@H](CC(N)=O)NC(=O)[C@H](NC(=O)[C@@H](CC(C)C)NC)[C@H](O)c5ccc(c(Cl)c5)Oc5cc4cc(c5O[C@@H]4O[C@H](CO)[C@@H](O)[C@H](O)[C@H]4O[C@H]4C[C@](C)(N)[C@H](O)[C@H](C)O4)Oc4ccc(cc4Cl)[C@H]3O)c3ccc(O)c(c3)-c3c(O)cc(O)cc32)C(N)=O)CC1 [MCC_004818] &system= Enterococcus faecium MDR Van A ATCC 51559 returns Minimum Inhibitory Concentration (MIC) E. faecium ATCC51559: xxx (xxx = 0.1-<1)

Minimum Inhibitory Concentration (MIC) E. faecium ATCC51559 value, target or system Enterococcus faecium MDR Van A ATCC 51559, for CNC(=O)C(CCCCNC(=O)C1NC(=O)C2NC(=O)C(NC(=O)C3NC(=O)C(CC(N)=O)NC(=O)C(NC(=O)C(CC(C)C)NC)C(O)c4ccc(c(Cl)c4)Oc4cc3cc(c4OC3OC(CO)C(O)C(O)C3OC3CC(C)(N)C(O)C(C)O3)Oc3ccc(cc3Cl)C2O)c2ccc(O)c(c2)-c2c(O)cc(O)cc21)NC(=O)C(CCCCN)NC(=O)C(CCCCNC(=O)CCCCCc1ccccc1)NC(=O)CCCCCc1ccccc1 (stereo not shown) [MCC_000508] : xx (xx = 1-4)
